Tested on: Huh7 cells
Test method notes: MTT assay, Huh7 cells
Conditions used: Huh7, compounds 24 h
Where a name gives a salt, the structure may show the parent alone.
Please go through the items and note down their TC50 DENV-2 (24 h).
The response must be a number in µM with no trailing unit.

Prompt: Sample O=C(Nc1ccc([N+](=O)[O-])cc1Cl)c1cc(Cl)ccc1O [Niclosamide] — what was its TC50 DENV-2 (24 h)?
Completion: 12.8

Prompt: Queued: "Cc1ccc(S(=O)(=O)N[C@@H](Cc2ccccc2)C(=O)CCl)cc1"
Completion: 31.7

Prompt: Queued: "CC(=O)/C=C1\C(=O)N(C)c2ccccc21"
Completion: 25.8

Prompt: Queued: CCN(CC)Cc1cc(Nc2ccnc3cc(Cl)ccc23)ccc1O [Amodiaquine, Amodiaquine dihydrochloride dihydrate]
Completion: 18.4

Prompt: Queued: O=C1c2c(O)ccc(O)c2C(=O)c2c(NCCNCCO)ccc(NCCNCCO)c21 [Mitoxantrone, Mitoxantrone dihydrochloride]
Completion: 4.6

Prompt: Queued: "O=[N+]([O-])c1ccc2c(c1)S(=O)(=O)C=C2"
Completion: 9.7

* * *

Test method notes: in vitro
Conditions used: human, % viability (SFV screen)
Counter-ions that a name gives are not always drawn.
Readout: viability at 10 µM (%)
The response must be a number in % with no trailing unit.

Prompt: Sample "C/C=C(/C)C(=O)O[C@H]1C(C)=C2[C@H]([C@@H]1OC(=O)CCCCCCC)[C@@](C)(OC(C)=O)C[C@H](OC(=O)CCC)[C@@]1(O)[C@H]2OC(=O)[C@@]1(C)O" — what was its viability at 10 µM?
Completion: 103

Prompt: Queued: CCCCN(CCCC)CCC(O)c1cc2c(Cl)cc(Cl)cc2c2cc(C(F)(F)F)ccc12 (stereo not drawn) [Halofantrine, Halofantrine hydrochloride]
Completion: 96.9

Prompt: Queued: C1CCC(C(CC2CCCCN2)C2CCCCC2)CC1 (stereo not drawn) [Perhexiline maleate]
Completion: 62.9

* * *

Test system: VACV
Test method notes: microbe, parasite or virus in culture
Type: cell-based, vaccinia virus
Conditions used: read-out: IC50 VACV
Readout: IC50 (µM)
The response must be a number in µM with no trailing unit.

Prompt: Sample "O=[N+]([O-])c1ccc2c(c1)S(=O)(=O)C=C2" — what was its IC50?
Completion: 4.1

Prompt: Queued: "Cc1ccc(S(=O)(=O)N[C@@H](Cc2ccccc2)C(=O)CCl)cc1"
Completion: 14.4

* * *

Please go through the items and note down their pIC50.
System: HCV
Test method notes: microbe, parasite or virus in culture
Assay type: cell-based, hepatitis C virus
Conditions used: read-out: IC50 HCV
Lab note — pIC50 values are minus log10 of concentrations in M.

Prompt: Sample "CC(=O)/C=C1\C(=O)N(C)c2ccccc21" — what was its pIC50?
Completion: 4.80

Prompt: Queued: "O=[N+]([O-])c1ccc2c(c1)S(=O)(=O)C=C2"
Completion: 5.43

* * *

Test method notes: in vivo
Conditions used: CD1, mouse, 1 mg/kg
Readout: concentration at 2 h (nM)
The response must be a number in nM with no trailing unit.

Prompt: Sample CC(C)(C)c1cc(C=C(C#N)C#N)cc(C(C)(C)C)c1O [Tyrphostin A9] — what was its concentration at 2 h?
Completion: 20

* * *

Tested on: DENV-2
Test method notes: DENV-2 infection assay / secondary screen (E protein staining)
Format: cell-based, dengue virus serotype 2
Conditions used: 10 µM, Huh7, MOI 1, 24 h, compared to DMSO-treated controls
Label scheme for % inhibition (DENV-2 screen): lower than 80% is NO, 80% and above is YES.

Prompt: Say whether O=[N+]([O-])c1ccc2c(c1)S(=O)(=O)C=C2 [Stattic] shows % inhibition (DENV-2 screen) of 80% or more.
Completion: YES

Prompt: Queued: Cc1ccc(S(=O)(=O)N[C@@H](Cc2ccccc2)C(=O)CCl)cc1 [N-p-Tosyl-L-PCK]
Completion: NO

Prompt: Queued: CCOC(=O)N1CCN(/[N+]([O-])=N/Oc2ccc([N+](=O)[O-])cc2[N+](=O)[O-])CC1 [JS-K]
Completion: YES

Prompt: Queued: CC(=O)/C=C1\C(=O)N(C)c2ccccc21 [Supercinnamaldehyde]
Completion: NO

Prompt: Queued: Cl.Cl.Fc1ccc(C(OCCN2CCN(CCCc3ccccc3)CC2)c2ccc(F)cc2)cc1 [GBR 12909 dihydrochloride]
Completion: YES
